Source of measurements: ChEMBL document CHEMBL3045910

- Experiment notes: Toxicity against Carassius auratus under laboratory conditions assessed as mortality at 10 ppm measured after 48 hr
- Type: organism-based
- Condition details: in vivo
List of mortality at 48 h, 10 ppm values.

{"columns": ["Structure string", "Readout unit", "mortality at 48 h, 10 ppm"],
 "data": [
  ["CC1(C)CC[C@]2(C(=O)O)CC[C@]3(C)C(=CC[C@@H]4[C@@]5(C)CC[C@H](O)C(C)(C)[C@@H]5CC[C@]43C)[C@@H]2C1", "%", 0],
  ["CC1(C)CC[C@]2(C(=O)O)CC[C@]3(C)C(=CC[C@@H]4[C@@]5(C)CC[C@H](O)[C@@](C)(CO)[C@@H]5CC[C@]43C)[C@@H]2C1", "%", 0]
]}
